max response by entry:
assay.notes: qHTS Assay for Lipid Storage Modulators (AID 1519)
setup.conditions: Drosophila S3 cells, BODIPY lipid droplet/cell ratio, laser cytometry; measured here: cell count channel max response; cells loaded with oleic acid
Results filed as inconclusive are left out.
Report as a plain number; the unit % is understood.

smiles.entry: COc1cc(O)c2c(=O)cc(C)oc2c1CC=C(C)C
max response (%): 7.83

Q: Looking for the measured max response of CC(=O)NCCNc1cc(-c2ccccc2C(F)(F)F)ncn1 , can you help?
A: 5.19

Q: Then what about the compound COc1ncc2nc(-c3ccc(F)cc3)c(=O)n(-c3ccccc3)c2n1 ?
A: -0.95

Q: Next: CS(=O)(=O)Nc1cccc(-c2ccc3ncnc(NC4CCNCC4)c3c2)c1
A: 3.42
